Data provenance is patent EP4631938A1.

Molecular target: human recombinant 5-HT2A receptor (Homo sapiens, UniProt P28223)
Construct: expressed in transfected cells; host or cells: Jump-In HEK cells (membrane preparation)
Sequence (P28223 whole entry): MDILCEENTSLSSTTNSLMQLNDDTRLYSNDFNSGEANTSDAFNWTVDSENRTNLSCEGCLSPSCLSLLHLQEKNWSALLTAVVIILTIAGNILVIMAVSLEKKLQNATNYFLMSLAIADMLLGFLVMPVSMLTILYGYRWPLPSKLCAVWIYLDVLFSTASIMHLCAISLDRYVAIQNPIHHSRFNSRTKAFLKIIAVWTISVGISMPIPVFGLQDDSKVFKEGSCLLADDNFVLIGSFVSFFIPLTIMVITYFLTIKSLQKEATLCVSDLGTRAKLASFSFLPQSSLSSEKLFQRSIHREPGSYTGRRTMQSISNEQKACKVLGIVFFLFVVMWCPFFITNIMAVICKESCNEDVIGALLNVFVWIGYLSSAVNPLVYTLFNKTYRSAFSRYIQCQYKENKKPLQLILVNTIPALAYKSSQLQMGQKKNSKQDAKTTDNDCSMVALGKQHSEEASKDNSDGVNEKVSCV
Experiment: Test Example 1-2: 5-HT2A receptor binding inhibition test ([3H]-Ketanserin; non-specific ligand Ketanserin)
Details: [3H]-Ketanserin; non-specific binding with 500 µmol/L Ketanserin; room temperature (25°C), 1.5 hours; read-out: h 5-HT2A Ki
pKi: −log10 of the molar value.
value-type: pKi

Here is how some compounds turned out for pKi.
- CNC(=O)c1ccc(F)c(-c2cc(Nc3ncc(C(F)(F)F)cc3F)ncc2OCCO)c1F: 9.02
- Cn1ncc(Br)c1-c1nc(Nc2ccc(OC(F)F)cn2)c(F)cc1OCCO: 9.40

a: Cc1nc(C)c(-c2cc(Nc3ncc(-c4ccc(F)cc4)cc3C)ncc2OCCO)c(C)n1
b: Cn1ncc(Br)c1-c1cc(Nc2ncc(Cl)c3ccccc23)ccc1OCCO
# min-compare on pKi between a and b Could you answer with the label of the item you picked?
a

---

Molecular target: human recombinant 5-HT2A receptor (Homo sapiens, UniProt P28223)
Construct: expressed in transfected cells; host or cells: Jump-In HEK cells (membrane preparation)
Assay: Test Example 1-2: 5-HT2A receptor binding inhibition test ([3H]-Ketanserin; non-specific ligand Ketanserin)
Details: [3H]-Ketanserin; non-specific binding with 500 µmol/L Ketanserin; room temperature (25°C), 1.5 hours; read-out: h 5-HT2A Ki
value-type: Ki (nM)

* Cc1ncnc(C)c1-c1cc(Nc2ncc(C(F)(F)F)cc2F)ccc1OCCO | 0.395
* Cn1ncc(Br)c1-c1cc(Nc2ncc(OC(F)(F)F)cn2)cnc1OCCO | 0.295
* Cn1ncc(C#N)c1-c1cc(Nc2ccc(C(F)(F)F)cn2)c(F)cc1OCCO | 0.36
* OCCOc1ccc(Nc2ncc(C(F)(F)F)cc2F)cc1-c1ccncc1Cl | 0.133
* Cn1ncc(Cl)c1-c1cc(Nc2ncc(F)cc2F)ccc1OCCO | 0.205

I: COCCOCc1nc(C)c(-c2cc(Nc3ncc(C(F)(F)F)cc3Cl)ncc2OCCO)c(C)n1
II: Cc1cc(C(F)(F)F)cnc1Nc1cc(-c2c(C)cnn2C)c(OCCO)cn1
Could you point out whether the larger Ki belongs to I or to II ? Could you answer with the label of the item you picked?
I

P: CNC(=O)c1cnc(C)c(-c2cc(Nc3ncc(C(F)(F)F)cc3F)ncc2OCCO)c1
Q: Cn1ncc(C#N)c1-c1cc(Nc2ncc(Cl)cc2F)ccc1OCCO
R: Cc1nc(C)c(-c2cc(Nc3ncc(-c4ccc(C(F)(F)F)cc4)cn3)ncc2OCCO)c(C)n1
S: Cn1ncc(Br)c1-c1cc(Nc2nccn3c(Br)cnc23)ccc1OCCO
Arrange the 4 molecules by rising Ki, starting with the smallest. Put the labels in the requested order and write them down.
Q, R, S, P
(Q: 0.318 nM, R: 0.65 nM, S: 1.56 nM, P: 2.37 nM)

---

Biological target: human recombinant 5-HT2A receptor (Homo sapiens, UniProt P28223)
Construct: expressed in transfected cells; host or cells: Jump-In HEK cells (membrane preparation)
Assay: Test Example 1-2: 5-HT2A receptor binding inhibition test ([3H]-Ketanserin; non-specific ligand Ketanserin)
Conditions: [3H]-Ketanserin; non-specific binding with 500 µmol/L Ketanserin; room temperature (25°C), 1.5 hours; read-out: h 5-HT2A Ki
value-type: Ki (nM)

Here is how some compounds turned out for Ki.
- Cn1ncc(Br)c1-c1cc(Nc2nc3ccc(F)cc3[nH]2)c(F)cc1OCCO [Compound I-406]: 0.463
- COCc1nc(C)c(-c2cc(Nc3ncc(-n4cc(C(F)F)cn4)cc3Cl)ncc2OCCO)c(C)n1 [Compound I-327]: 2.4
- Cn1ncc(Br)c1-c1cc(Nc2ncc(OC(F)(F)F)cc2F)c(F)cc1OCCO [Compound I-168]: 0.248
- Cc1nc(C)c(-c2nc(Nc3ccc(OC(F)(F)F)c(C)n3)c(F)cc2OCCO)c(C)n1 [Compound I-383]: 2.57
- Cn1ncc(Br)c1-c1cc(Nc2nc3cnccc3s2)ccc1OCCO [Compound I-076]: 0.211

I: Cn1ncc(Br)c1-c1nc(Nc2ccc(Cl)c(Cl)c2)ncc1OCCO [Compound I-344]
II: Cc1nc(C)c(-c2cc(Nc3ncc(C(F)(F)F)cc3F)ncc2O[C@H](C)CO)c(C)n1 [Compound I-361]
Could you point out whether the larger Ki belongs to I or to II ? Could you answer with the label of the item you picked?
II

P: Cc1cnn(C)c1-c1cc(Nc2ncc(OC(F)(F)F)cc2Cl)ncc1OCCO [Compound I-183]
Q: COc1nc(C)c(-c2cc(Nc3ncc(C(F)(F)F)cc3Cl)ncc2OCCO)c(C)n1 [Compound I-210]
R: Cc1nc(N2CCCC2)nc(C)c1-c1cc(Nc2ncc(C(F)(F)F)cc2Cl)ncc1OCCO [Compound I-209]
Please list these compounds in decreasing order of Ki. Put the labels in the requested order and write them down.
R, Q, P
(R: 1.71 nM, Q: 0.804 nM, P: 0.271 nM)
